biological target: Recombinant GST-Tie2 (Homo sapiens); test: Tie2 fluorescence polarization kinase activity assay (TIE2-FP); format: biochemical; details: 200 μM ATP, activated enzyme; read-out: TIE2-FP pIC50 (converted)
Sequence (Q02763 23-1124): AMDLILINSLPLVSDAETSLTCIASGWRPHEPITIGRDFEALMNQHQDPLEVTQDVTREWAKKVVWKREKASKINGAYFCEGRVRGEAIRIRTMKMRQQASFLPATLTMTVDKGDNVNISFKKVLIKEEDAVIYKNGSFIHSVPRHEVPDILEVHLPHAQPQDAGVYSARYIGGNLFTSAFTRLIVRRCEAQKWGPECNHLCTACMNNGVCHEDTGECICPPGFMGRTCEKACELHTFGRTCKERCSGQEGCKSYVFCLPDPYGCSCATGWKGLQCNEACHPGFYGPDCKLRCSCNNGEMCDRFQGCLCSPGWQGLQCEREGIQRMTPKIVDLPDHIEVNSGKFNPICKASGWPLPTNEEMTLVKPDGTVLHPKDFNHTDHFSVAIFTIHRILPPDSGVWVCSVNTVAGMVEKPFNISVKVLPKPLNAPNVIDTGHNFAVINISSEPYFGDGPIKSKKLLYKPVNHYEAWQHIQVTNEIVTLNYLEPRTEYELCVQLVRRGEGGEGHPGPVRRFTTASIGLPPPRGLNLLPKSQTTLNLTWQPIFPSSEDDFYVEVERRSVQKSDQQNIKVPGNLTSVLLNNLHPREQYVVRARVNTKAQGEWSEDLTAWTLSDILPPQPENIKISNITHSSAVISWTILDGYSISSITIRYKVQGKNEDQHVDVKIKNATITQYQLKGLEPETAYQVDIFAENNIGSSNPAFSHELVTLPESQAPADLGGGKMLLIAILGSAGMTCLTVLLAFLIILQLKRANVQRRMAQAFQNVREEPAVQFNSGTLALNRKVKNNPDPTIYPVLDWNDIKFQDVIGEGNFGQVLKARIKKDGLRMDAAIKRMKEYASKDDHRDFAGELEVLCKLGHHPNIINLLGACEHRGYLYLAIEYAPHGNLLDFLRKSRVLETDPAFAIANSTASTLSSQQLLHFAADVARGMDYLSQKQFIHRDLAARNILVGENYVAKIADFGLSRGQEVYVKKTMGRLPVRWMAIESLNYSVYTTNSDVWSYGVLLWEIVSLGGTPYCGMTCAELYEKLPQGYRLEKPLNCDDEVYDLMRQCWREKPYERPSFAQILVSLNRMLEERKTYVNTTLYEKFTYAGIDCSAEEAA
REPORTED_METRIC: IC50

# COMPOUND, EXPERIMENTAL_TARGET, REPORTED_RESULT
measured = [
    ("Cn1nc(-c2ccc(NC(=O)Nc3ccc4c(c3)OCO4)cc2)c(C(N)=O)c1N [Example 12]", "Recombinant GST-Tie2 (Homo sapiens)", "1 to 10 µM"),
    ("Cn1nc(-c2ccc(NC(=O)Nc3cc(C(F)(F)F)ccc3Cl)cc2)c(C(N)=O)c1N [Example 3]", "Recombinant GST-Tie2 (Homo sapiens)", "< 0.1 µM"),
    ("CC(C)(C)n1nc(-c2ccc(NC(=O)Nc3ccc(-c4ccccc4)cc3)cc2)c(C(N)=O)c1N [Example 25]", "Recombinant GST-Tie2 (Homo sapiens)", "0.1 to 1 µM"),
    ("Cn1nc(-c2ccc(NC(=O)Nc3cccc(Cl)c3)cc2)c(C(N)=O)c1N [Example 6]", "Recombinant GST-Tie2 (Homo sapiens)", "1 to 10 µM"),
]

Query string: Requested field: IC50. Item: NC(=O)c1c(-c2ccc(NC(=O)Nc3cc(C(F)(F)F)ccc3F)cc2)n[nH]c1N [Example 33]
Result string: < 0.1 µM
